Hello, the source for this data is patent US20240174625A1, in case you need it.

system under test: NPEPPS (Homo sapiens, UniProt P55786)
Construct: endogenous in cells
Sequence (P55786 whole entry): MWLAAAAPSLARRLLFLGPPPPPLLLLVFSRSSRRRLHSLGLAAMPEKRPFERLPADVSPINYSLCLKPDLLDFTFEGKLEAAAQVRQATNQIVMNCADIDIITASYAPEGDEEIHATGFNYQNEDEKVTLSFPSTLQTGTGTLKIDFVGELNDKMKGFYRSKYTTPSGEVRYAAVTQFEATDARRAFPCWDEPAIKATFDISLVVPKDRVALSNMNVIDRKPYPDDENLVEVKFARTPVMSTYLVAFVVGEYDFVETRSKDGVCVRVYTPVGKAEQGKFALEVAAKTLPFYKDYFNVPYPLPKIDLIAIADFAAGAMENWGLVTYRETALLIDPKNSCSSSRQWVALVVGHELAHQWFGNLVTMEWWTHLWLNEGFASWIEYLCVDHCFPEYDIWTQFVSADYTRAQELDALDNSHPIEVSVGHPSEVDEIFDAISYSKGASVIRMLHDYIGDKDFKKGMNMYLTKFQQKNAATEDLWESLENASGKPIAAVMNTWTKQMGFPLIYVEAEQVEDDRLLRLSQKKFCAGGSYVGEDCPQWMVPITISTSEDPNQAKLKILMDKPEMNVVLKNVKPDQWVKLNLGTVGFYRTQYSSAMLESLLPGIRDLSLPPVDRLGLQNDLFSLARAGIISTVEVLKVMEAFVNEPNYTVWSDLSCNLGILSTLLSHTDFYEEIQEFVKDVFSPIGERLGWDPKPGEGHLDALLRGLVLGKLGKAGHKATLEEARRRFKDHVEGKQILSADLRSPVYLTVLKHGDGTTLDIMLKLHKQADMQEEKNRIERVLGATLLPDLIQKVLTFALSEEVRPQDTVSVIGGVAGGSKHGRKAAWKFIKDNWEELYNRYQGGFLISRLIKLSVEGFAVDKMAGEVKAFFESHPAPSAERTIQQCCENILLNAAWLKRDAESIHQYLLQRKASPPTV
measurement description: Cell-based NPEPPS activity assay (Q-AMC fluorescence)
condition: log10 transformed; EC50 = concentration that elevates 50% NPEPPS activity (150% of DMSO baseline); HEK293T cells
Kindly state EC50 for each of the entries shown.
Answers are plain numbers, in µM.

Sample answers from the record:
query_smiles=FC(F)(F)c1ccc(COc2ccc(CNc3nsc4ccc(OCc5ccccc5)cc34)cc2)cc1 observed=15.8
query_smiles=FC(F)(F)c1ccc(CNc2nsc3cnccc23)cc1 observed=22.4
query_smiles=Fc1ccc(NCc2ccc(C(F)(F)F)cc2)nc1 observed=53.7
query_smiles=CN(Cc1ccc(OCc2ccc(Cl)cc2)cc1)c1nsc2ccc(OCc3ccccc3)cc12 observed=5.62
query_smiles=c1ccc(COc2ccc3snc(NCc4ccc(OCC5CC5)cc4)c3c2)cc1 observed=4.17
query_smiles=FC(F)c1ccc(CNc2nsc3ccccc23)cc1 observed=148
query_smiles=FC(F)(F)Sc1ccc(CNc2nsc3ccc(OCc4ccccc4)cc23)cc1 observed=10.2
query_smiles=COc1ccc(CNc2nsc3ccccc23)cc1 observed=257
query_smiles=c1ccc(COc2ccc3snc(NCc4ccc(OCc5cccc6ccccc56)cc4)c3c2)cc1 observed=126
query_smiles=Clc1ccc(CNc2nsc3ccccc23)cc1Cl observed=32.4

Provide the reported EC50 of each entry below, same order.
1. CN(Cc1ccc(OCc2ccccc2)cc1)c1nsc2cnccc12
2. c1ccc(CNc2nsc3ccccc23)nc1
3. COc1ccc(CN(C)c2nsc3ccc(OCc4ccccc4)cc23)cc1
4. FC(F)(F)c1ccc(COc2ccc(CNc3nsc4ccccc34)cc2)cc1
5. FC(F)(F)c1ccc(CNc2noc3ccccc23)cc1
6. FC(F)(F)c1ccc(CNc2nsc3cccc(OCc4ccccc4)c23)cc1
7. Clc1ccc(C(Nc2nsc3ccccc23)c2ccc(Cl)cc2)cc1
8. CN(Cc1ccc(SC(F)(F)F)cc1)c1nsc2ccc(OCc3ccccc3)cc12

Solution:
2.29
105
85.1
7.41
20.4
13.2
9.77
18.6

Provide the reported EC50 of each entry below, same order.
1. FC(F)(F)c1ccc(CNc2ncccn2)cc1
2. c1ccc(COc2ccc3snc(NCc4ccc(OCC5CCC5)cc4)c3c2)cc1
3. COc1ccc(CNc2noc3ccccc23)cc1OC

Solution:
1. 56.2
2. 4.47
3. 251

---

System: HEK293T cells
measurement description: Cell viability assay (CellTiter Glo)
Assay type: cell-based, human
condition: ratio of IC50 (cell viability) over EC50 (NPEPPS activity)
I'd appreciate it if you marked entries T when Therapeutic index is lower than 7 and F when it is not.

query_smiles=FC(F)(F)Oc1ccc(CNc2nsc3ccccc23)cc1 assigned_class=T

Exercise: Is it true that Therapeutic index reported for COc1ccc(COc2nsc3ccccc23)cc1OC is less than 7?
Solution: T

Exercise: Is it true that Therapeutic index reported for Brc1ccc(COc2ccc(CNc3nsc4ccc(OCc5ccccc5)cc34)cc2)cc1 is less than 7?
Solution: T

Exercise: Is it true that Therapeutic index reported for COc1ccc2snc(N(C)Cc3ccc(OCc4ccccc4)cc3)c2c1 is less than 7?
Solution: F

Exercise: Is it true that Therapeutic index reported for Fc1ccccc1CNc1nsc2ccccc12 is less than 7?
Solution: T

Exercise: Is it true that Therapeutic index reported for c1ccc2c(c1)-c1ccccc1C2Nc1nsc2ccccc12 is less than 7?
Solution: F

Exercise: Is it true that Therapeutic index reported for COc1ccc(CN(C)c2nsc3ccccc23)cc1OC is less than 7?
Solution: T

Exercise: Is it true that Therapeutic index reported for FC(F)(F)c1ccc(C(Nc2nsc3ccccc23)c2ccc(C(F)(F)F)cc2)cc1 is less than 7?
Solution: T

Exercise: Is it true that Therapeutic index reported for COc1ccc(CN(Cc2ccc(C(F)(F)F)cc2)c2nsc3ccccc23)cc1OC is less than 7?
Solution: F

---

system under test: NPEPPS (Homo sapiens)
Construct: endogenous in cells; host or cells: HEK293T
measurement description: Cell-based NPEPPS activity assay (Q-AMC fluorescence)
condition: log10 transformed; EC50 = concentration that elevates 50% NPEPPS activity (150% of DMSO baseline); HEK293T cells
Kindly state pEC50 for each of the entries shown.
Give bare numbers, as −log10 of the molar value.

Sample answers from the record:
compound=CN(C)c1ccc(CNc2nsc3ccccc23)cc1 observed=3.62
compound="CC(Nc1nsc2ccccc12)c1ccccc1 (stereo not drawn)" observed=3.70
compound=Fc1cccc2c(NCc3ccc(C(F)(F)F)cc3)nsc12 observed=4.27
compound=COc1ccc(CN(Cc2ccc(C(F)(F)F)cc2)c2nsc3ccccc23)cc1OC observed=4.75
compound=CN(Cc1ccc(C(F)(F)F)cc1)c1nsc2cnccc12 observed=5.34

Consider the additional compound presented here.
Exercise: Consider the compound FC(F)(F)Sc1ccc(CNc2nsc3ccccc23)cc1 and give its measured pEC50.
Solution: 5.20

---

Test system: HEK293T cells
measurement description: Cell viability assay (CellTiter Glo)
Assay type: cell-based, human
condition: ratio of IC50 (cell viability) over EC50 (NPEPPS activity)
recorded endpoint: Therapeutic index
One number for each entry.

Sample answers from the record:
compound="COc1ccc(CNc2nsc3ccccc23)cc1OC [JMM001]" recorded_endpoint="Therapeutic index" observed=4.05
compound="Fc1cccc2c(NCc3ccccc3C(F)(F)F)nsc12 [JMM056]" recorded_endpoint="Therapeutic index" observed=2.34
compound="CC(Nc1nsc2ccccc12)c1ccccc1 (stereo not shown) [JMM075]" recorded_endpoint="Therapeutic index" observed=0.65
compound="COc1ccc(CN(C)c2nsc3ccc(OCc4ccccc4)cc23)cc1 [JMM107]" recorded_endpoint="Therapeutic index" observed=1.04
compound="FC(F)(F)c1cc(CNc2nsc3ccccc23)cc(C(F)(F)F)c1 [JMM008]" recorded_endpoint="Therapeutic index" observed=7.09

Provide the reported Therapeutic index of each entry below, same order.
1. Fc1ccc(COc2ccc(CNc3nsc4ccc(OCc5ccccc5)cc34)cc2)c(F)c1 [JMM111]
2. Clc1ccc(CNc2nsc3ccccc23)cc1Cl [JMM021]
3. FC(F)(F)c1ccc(CNc2nsc3cccnc23)cc1 [JMM060]
4. FC(F)(F)c1ccc(COc2ccc(CNc3nsc4ccccc34)cc2)cc1 [JMM031]
5. FC(F)(F)c1ccc(CN(CC2CC2)c2nsc3ccccc23)cc1 [JMM133]

Solution:
1. 2.74
2. 1.80
3. 1.88
4. 10.38
5. 3.78

---

system under test: NPEPPS (Homo sapiens, UniProt P55786)
Construct: endogenous in cells
measurement description: Cell-based NPEPPS activity assay (Q-AMC fluorescence)
condition: log10 transformed; EC50 = concentration that elevates 50% NPEPPS activity (150% of DMSO baseline); HEK293T cells
recorded endpoint: EC50

Sample answers from the record:
compound="FC(F)(F)c1ccc(CNc2nsc3ccccc23)cc1 [JMM005]" observed="34.7 µM"
compound="COc1ccc(CNc2nsc3c(Br)cccc23)cc1OC [JMM041]" observed="105 µM"
compound="COc1ccc(CNc2ccc(F)cn2)cc1OC [JMM046]" observed="214 µM"
compound="c1ccc2c(c1)-c1ccccc1C2Nc1nsc2ccccc12 [JMM052]" observed="17 µM"
compound="Fc1ccc(CNc2nsc3ccccc23)cc1 [JMM011]" observed="316 µM"

Provide the reported EC50 of each entry below, same order.
1. Cc1ccc(CNc2nsc3ccccc23)cc1 [JMM023]
2. Fc1ccccc1COc1ccc(CNc2nsc3ccc(OCc4ccccc4)cc23)cc1 [JMM118]
3. CN(Cc1ccc(OCc2ccccc2)cc1)c1nsc2ccc(OCc3ccccc3)cc12 [JMM088]
4. COc1ccc(CNc2n[nH]c3ccccc23)cc1OC [JMM047]
5. CN(Cc1ccccc1)c1ccc(CNc2nsc3ccc(OCc4ccccc4)cc23)cc1 [JMM125]

Solution:
["51.3 µM", "25.7 µM", "0.977 µM", "60.3 µM", "40.7 µM"]

Exercise: Consider the compound FC(F)(F)c1ccc(CNc2nsc3cccnc23)cc1 [JMM060] and give its measured EC50.
Solution: 53.7 µM

---

Test system: HEK293T cells
measurement description: Cell viability assay (CellTiter Glo)
Format: cell-based, human
condition: ratio of IC50 (cell viability) over EC50 (NPEPPS activity)
recorded endpoint: Therapeutic index
Numbers only.

query_smiles=COc1ccc(CNc2nsc3ccccc23)cc1 recorded_endpoint="Therapeutic index" observed=1.03
query_smiles=Fc1cccc2c(NC(c3ccccc3)c3ccccc3)nsc12 recorded_endpoint="Therapeutic index" observed=4.85
query_smiles=COc1ccc(CNc2nsc3cccc(OC)c23)cc1OC recorded_endpoint="Therapeutic index" observed=3.05

Provide the reported Therapeutic index of each entry below, same order.
1. FC(F)(F)c1ccc(CNc2nsc3ccc(OCc4ccc(C(F)(F)F)cc4)cc23)cc1
2. C[C@@H](Nc1nsc2ccccc12)c1cccc2ccccc12
3. CN(Cc1ccc(C(F)(F)F)cc1)c1nsc2cnccc12
4. CN(Cc1ccc(OCc2ccccc2)cc1)c1nsc2ccc(OCc3ccccc3)cc12
5. FC(F)(F)c1ccc(COc2ccc(CNc3nsc4ccc(OCc5ccccc5)cc34)cc2)cc1

Solution:
[3.30, 2.54, 5.13, 100.53, 18.30]

Exercise: Consider the compound Fc1ccc(COc2ccc(CNc3nsc4ccc(OCc5ccccc5)cc34)cc2)cc1 and give its measured Therapeutic index.
Solution: 1.88
